Observed IC50 for glutaminyl cyclase (QC) (Homo sapiens), reported per entry below.
# number only, unit µM dropped from output

[
  {
    "smiles-data": "CCc1ccc(N/C(=N/C#N)NCCCn2cnc(C)c2)cc1",
    "system-under-test": "glutaminyl cyclase (QC) (Homo sapiens)",
    "IC50, µM": 13.9
  },
  {
    "smiles-data": "Cc1cncn1CCCN/C(=N\\C#N)Nc1cccc2ccccc12",
    "system-under-test": "glutaminyl cyclase (QC) (Homo sapiens)",
    "IC50, µM": 0.61
  },
  {
    "smiles-data": "Cc1cn(CCCN/C(=N/C#N)Nc2ccc(-c3ccccc3)cc2)cn1",
    "system-under-test": "glutaminyl cyclase (QC) (Homo sapiens)",
    "IC50, µM": 10.4
  },
  {
    "smiles-data": "Cc1cncn1CCCN/C(=N\\C#N)Nc1ccc2c(c1)OCO2",
    "system-under-test": "glutaminyl cyclase (QC) (Homo sapiens)",
    "IC50, µM": 0.59
  },
  {
    "smiles-data": "COc1ccc(N/C(=N\\C#N)NCCCn2cnc(C)c2)cc1",
    "system-under-test": "glutaminyl cyclase (QC) (Homo sapiens)",
    "IC50, µM": 14.4
  },
  {
    "smiles-data": "Cc1cn(CCCN/C(=N/C#N)Nc2ccc3ccccc3c2)cn1",
    "system-under-test": "glutaminyl cyclase (QC) (Homo sapiens)",
    "IC50, µM": 12.4
  }
]

Task: # lookup: IC50 of Cc1cn(CCCN/C(=N\C#N)Nc2cccc3ccccc23)cn1
Result: 13.8

Task: # lookup: IC50 of Cc1cncn1CCCN/C(=N\C#N)Nc1ccc(C(C)C)cc1
Result: 0.55

Task: # lookup: IC50 of Cc1cc(C)c(N/C(=N/C#N)NCCCn2cncc2C)c(C)c1
Result: 0.624

Task: # lookup: IC50 of CCOc1ccc(N/C(=N\C#N)NCCCn2cnc(C)c2)cc1
Result: 5.69

Task: # lookup: IC50 of CCOc1ccc(N/C(=N\C#N)NCCCn2cncc2C)cc1
Result: 1.09
